system: MDA-MB-453; test: drug sensitivity score (DSS), in combination with BLU9931 (DSS (weighted AUC score)); higher = more sensitive (stronger viability decrease); extreme values may be limits of the assay; settings: BLU9931 100 nM; 72 h
Output TRUE for drug sensitivity score not less than 5; output FALSE otherwise.

1. C#Cc1cccc(Nc2ncnc3cc4c(cc23)OCCOCCOCCO4)c1 ... FALSE
2. CCOc1ccccc1-n1c(C(C)N2CCN(C(=O)COc3ccc(Cl)cc3)CC2)nc2ccccc2c1=O (stereo unspecified) ... TRUE
3. O=C(O)c1ccc(CN2CCC(CN[C@@H]3C[C@H]3c3ccccc3)CC2)cc1 ... FALSE
4. CC(C)Oc1ccc(C(=O)N[C@H](CNC(=O)CN(C)C)Cc2ccc(-c3cn4cccc([C@H](C)O)c4n3)cc2)cc1Cl ... TRUE
5. CC(C)C[C@H](NC(=O)[C@H](Cc1ccccc1)NC(=O)c1cnccn1)B(O)O ... TRUE

* * *

system: MDA-MB-453; test: drug sensitivity score (DSS), in combination with BLU9931 (DSS (weighted AUC score)); higher = more sensitive (stronger viability decrease); extreme values may be limits of the assay; conditions: BLU9931 100 nM; 72 h
Attribute Measured: drug sensitivity score

1. CN(C)c1cc2c(cc1Sc1nc3c(N)nccc3n1CCNCC(C)(C)C)OCO2 [CUDC-305] ... 15.9
2. C=CC(=O)N1CCC(Oc2cc3c(Nc4ccc(Cl)c(Cl)c4F)ncnc3cc2OC)CC1 [Poziotinib] ... 25.1
3. C[C@@]1(C(=O)Nc2ccc(F)nc2)CCCN1c1nc(Nc2cc(C3CC3)n[nH]2)c2cccn2n1 ... 0
4. C[C@@H]1COCCN1c1cc(C2([S@](C)(=N)=O)CC2)nc(-c2cc[nH]c3nccc2-3)n1 [AZD6738] ... 10.7
5. O=C(c1ccc(C(=O)N2CCC(N3CCCC3)CC2)c(Nc2ccccc2)c1)N1CCC(N2CCCC2)CC1 [UNC1215] ... 0
6. CC(C)Nc1cc(-c2c[nH]c(C(=O)N[C@H](CO)c3cccc(Cl)c3)c2)c(Cl)cn1 [Ulixertinib] ... 0.5

* * *

Listed here are compounds together with their documented drug sensitivity score.
tested on: MDA-MB-453; assay: drug sensitivity score (DSS), single agent (DSS (weighted AUC score)); higher = more sensitive (stronger viability decrease); extreme values may be limits of the assay; settings: BLU9931 0 nM; 72 h
Attribute Measured: drug sensitivity score

1. Cn1cc(C2=C(c3cn(C4CCN(Cc5ccccn5)CC4)c4ccccc34)C(=O)NC2=O)c2ccccc21 ... 0
2. Cc1cc(Nc2ncc(Cl)c(Nc3ccccc3S(=O)(=O)C(C)C)n2)c(OC(C)C)cc1C1CCNCC1 ... 1.8
3. COc1cc2c(Oc3ccc4[nH]c(C)cc4c3F)ncnc2cc1OCCCN1CCCC1 ... 0

* * *

Documented drug sensitivity score across a set of molecules
tested on: MDA-MB-453; assay: drug sensitivity score (DSS), in combination with BLU9931 (DSS (weighted AUC score)); higher = more sensitive (stronger viability decrease); extreme values may be limits of the assay; settings: BLU9931 100 nM; 72 h
Attribute Measured: drug sensitivity score

1) CC1(C)CNc2cc(NC(=O)c3cccnc3NCc3ccncc3)ccc21 [Motesanib] ... 0.3
2) CC1=C(/C=C/C(C)=C/C=C/C(C)=C/C(=O)O)C(C)(C)CCC1 [Tretinoin] ... 0
3) COc1cc(OC)cc(N(CCNC(C)C)c2ccc3ncc(-c4cnn(C)c4)nc3c2)c1 [Erdafitinib] ... 0.2
4) FC(F)c1nc2ccccc2n1-c1nc(N2CCOCC2)nc(N2CCOCC2)n1 [ZSTK474] ... 15.6

* * *

tested on: MDA-MB-453; experiment: drug sensitivity score (DSS), single agent (DSS (weighted AUC score)); higher = more sensitive (stronger viability decrease); extreme values may be limits of the assay; conditions: BLU9931 0 nM; 72 h
Threshold check on drug sensitivity score: at or above 6 gives MET, strictly below gives NOT MET.

1) CN1C(=O)N[C@H](Cc2c[nH]c3c(Cl)cccc23)C1=O ... NOT MET
2) Nc1nc(NC2CC2)cc(-c2cccc(Cl)c2Cl)n1 ... NOT MET
3) CONC(=O)c1ccccc1Nc1cc(Nc2cc(C)nn2C(C)C)ncc1Cl ... NOT MET
4) Cc1[nH]nc(C(F)(F)F)c1Cc1sc2c(c1C(=O)N1C[C@](C)(O)CO1)c(=O)n(C)c(=O)n2C(C)C ... NOT MET
5) CNC(=O)c1cc(Oc2ccc(NC(=O)Nc3ccc(Cl)c(C(F)(F)F)c3)cc2)ccn1 ... NOT MET
6) CC(=O)Nc1ccc(C(=O)Nc2ccccc2N)cc1 ... NOT MET
7) Nc1nc(Cl)nc2c1ncn2[C@@H]1O[C@H](CO)[C@@H](O)[C@@H]1F ... NOT MET
8) CC[C@@H]1C(=O)N(C)c2cnc(Nc3ccc(C(=O)NC4CCN(C)CC4)cc3OC)nc2N1C1CCCC1 ... MET
9) CNc1ncc2cc(-c3cc(NC(=O)NCCC(C)(C)C)c(F)cc3C)c(C)nc2n1 ... MET
10) CCNCCS(=O)(=O)NC[C@@]1(c2ccccc2)SC(NC(=O)C(C)(C)C)=NN1C(=O)C(C)(C)C ... MET
11) CCN(CC)Cc1ccc2cc(COC(=O)Nc3ccc(C(=O)NO)cc3)ccc2c1 ... MET
12) O=C(/C=C/c1cccc(S(=O)(=O)Nc2ccccc2)c1)NO ... MET
13) N#CC(c1ccnc(OCc2ccc(CN3CCOCC3)cc2)n1)c1nc2ccccc2s1 (stereo not drawn) ... NOT MET
14) CC(C)Oc1ccc(-c2nn([C@@H](C)c3oc4ccc(F)cc4c(=O)c3-c3cccc(F)c3)c3ncnc(N)c23)cc1F ... NOT MET
15) COc1cc2nccc(Oc3ccc(NC(=O)NC4CC4)c(Cl)c3)c2cc1C(N)=O ... NOT MET
16) CNc1nc(Nc2cn(C(C)(C)C#N)nc2C)ncc1C(F)(F)F ... NOT MET
17) CC(C)(C)Cn1c(N)nc2ccc(-c3[nH]c(C(C)(C)C)nc3-c3ccc(F)cc3)nc21 ... NOT MET
18) N#CCNC(=O)c1ccc(-c2ccnc(Nc3ccc(N4CCOCC4)cc3)n2)cc1 ... NOT MET
19) NC(=O)Nc1cc(-c2cccc(F)c2)sc1C(=O)N[C@H]1CCCNC1 ... NOT MET
20) CN(c1ncccc1CNc1nc(Nc2ccc3c(c2)CC(=O)N3)ncc1C(F)(F)F)S(C)(=O)=O ... NOT MET
21) COc1cc(OC)c(/C=C/S(=O)(=O)Cc2ccc(OC)c(NCC(=O)O)c2)c(OC)c1 ... MET
22) Cc1cc(F)c(C(=O)Nc2cccc(-c3nncn3C(C)C)n2)cc1-n1cnc(C2CC2)c1 ... NOT MET
23) CO[C@@H]1[C@H](N(C)C(=O)c2ccccc2)C[C@H]2O[C@]1(C)n1c3ccccc3c3c4c(c5c6ccccc6n2c5c31)C(=O)NC4 ... MET
24) CC(C)(C)c1cnc(CSc2cnc(NC(=O)C3CCNCC3)s2)o1 ... MET
25) CC(C)[C@H](C(=O)Nc1ccc(C(=O)NO)cc1)c1ccccc1 ... MET
26) CCN1CCN(c2ccc(Nc3cc(N(C)C(=O)Nc4c(Cl)c(OC)cc(OC)c4Cl)ncn3)cc2)CC1 ... NOT MET
27) CCN(CC)CCN(Cc1ccc(-c2ccc(C(F)(F)F)cc2)cc1)C(=O)Cn1c(SCc2ccc(F)cc2)nc(=O)c2c1CCC2 ... NOT MET

* * *

system: MDA-MB-453; experiment: drug sensitivity score (DSS), in combination with BLU9931 (DSS (weighted AUC score)); higher = more sensitive (stronger viability decrease); extreme values may be limits of the assay; details: BLU9931 100 nM; 72 h
The following ranges of drug sensitivity score define the classes used here: low-valued = under 0.4, mid-valued = from 0.4 up to 3, high-valued = 3 and over

1. O=C(c1ccc(F)c(F)c1Nc1ccc(I)cc1F)N1CC(O)([C@@H]2CCCCN2)C1 [Cobimetinib] ... low-valued
2. Nc1nc(OCc2cc(Br)cs2)c2[nH]cnc2n1 [Lomeguatrib] ... low-valued
3. Cc1c(C(=O)Nc2ccc(N3C[C@@H](C)O[C@@H](C)C3)nc2)cccc1-c1ccc(OC(F)(F)F)cc1 [Sonidegib] ... mid-valued
4. C=CC(=O)Nc1cc(Nc2nccc(-c3cn(C)c4ccccc34)n2)c(OC)cc1N(C)CCN(C)C [Osimertinib] ... high-valued
5. O=C(O)CCCCC(CCSCc1ccccc1)SCc1ccccc1 (centres undefined) [CPI-613] ... low-valued
6. CC(O)(CS(=O)(=O)c1ccc(F)cc1)C(=O)Nc1ccc(C#N)c(C(F)(F)F)c1 (centres undefined) [Bicalutamide] ... mid-valued
7. CC(C)[C@@H](CS(=O)(=O)C(C)C)N1C(=O)[C@@](C)(CC(=O)O)C[C@H](c2cccc(Cl)c2)[C@H]1c1ccc(Cl)cc1 [AMG-232] ... low-valued
8. Nc1cccc2c1CN(C1CCC(=O)NC1=O)C2=O (centres undefined) [Lenalidomide] ... low-valued
9. Cc1noc2c1-c1ccccc1C(c1ccc(Cl)cc1)=N[C@H]2CC(N)=O [CPI-0610] ... high-valued
10. Cc1nc(Nc2n[nH]c3c2CN(C(=O)N[C@H](CN(C)C)c2ccccc2)C3(C)C)c2sccc2n1 ... high-valued
11. FC(F)(F)c1ccc(/C=C/c2nc(COc3ccc(CCCCn4ccnn4)cc3)co2)cc1 [Mubritinib] ... high-valued
12. CCC/C=C/C=C/C(=O)O[C@H]1/C(=C/C(=O)OC)C[C@H]2C[C@H]([C@@H](C)O)OC(=O)C[C@H](O)C[C@@H]3C[C@H](OC(C)=O)C(C)(C)[C@](O)(C[C@@H]4C/C(=C/C(=O)OC)C[C@H](/C=C/C(C)(C)[C@]1(O)O2)O4)O3 [Bryostatin 1] ... mid-valued
13. Nc1nc(F)nc2c1ncn2[C@@H]1O[C@H](CO)[C@@H](O)[C@@H]1O [Fludarabine] ... low-valued
14. CC[C@@H](C(=O)[C@@H](C)[C@@H](O)[C@H](C)[C@@H]1O[C@@H]([C@@H](CC)C(=O)O)CC[C@@H]1C)[C@H]1O[C@]2(C=C[C@@H](O)[C@]3(CC[C@@](C)([C@H]4CC[C@](O)(CC)[C@H](C)O4)O3)O2)[C@H](C)C[C@@H]1C [Salinomycin] ... high-valued
15. COc1ccc(Cn2ccc3ccc(C(=O)NO)cc32)cc1 ... mid-valued
16. Nc1ncnc2c1c(COc1cccc(Cl)c1)nn2C1CCOCC1 ... mid-valued
17. O=C(Nc1cc(Oc2cc(F)c(NC(=O)C3(C(=O)Nc4ccc(F)cc4)CC3)cc2F)ccn1)C1CC1 [Altiratinib] ... high-valued
18. C[C@]12C=CC(=O)C=C1CC[C@@H]1[C@@H]2[C@@H](O)C[C@@]2(C)[C@H]1CC[C@]2(O)C(=O)CO [Prednisolone] ... low-valued
19. O=C(Nc1cccc(NC(=O)c2cccc(O)c2O)c1)c1cccc(O)c1O [MST-312] ... high-valued
20. O=C1NC(=O)[C@@H](c2cn3c4c(cccc24)CCC3)[C@@H]1c1c[nH]c2ccccc12 [Tivantinib] ... mid-valued
21. Nc1nc2[nH]cc(CCc3ccc(C(=O)N[C@@H](CCC(=O)O)C(=O)O)cc3)c2c(=O)[nH]1 [Pemetrexed] ... mid-valued
22. CN(C)C[C@@H]1CCn2cc(c3ccccc32)C2=C(C(=O)NC2=O)c2cn(c3ccccc23)CCO1 [Ruboxistaurin] ... high-valued
23. O=C(c1cccc(Cl)c1F)N1CCN(Cc2cccc(Nc3nccs3)n2)CC1 [MK-8745] ... mid-valued
